- measured target: Gal(a1-4)GlcNAc
- assay protocol: glycan array binding signal (z-score within array); higher = stronger binding
- measurement parameters: glycan notation: IUPAC condensed, linker removed
This is one part of a sample in which the strongest signals are shown more often than they occur.
Recorded measurements of glycan array binding signal (z-score), one per entry

[
  {
    "binder": "BC2LB (Burholderia cenocepacia), B4EH85_BURCJ (protein) MGSSHHHHHHSSGENLYFQGHMSQPFTHDDLYALLQLAGNDATAVQANGDQAVLDRMRQFMTAQLVEKLPQYDVFVDIATIPYSFDVGSWQNKVKTDAAGEVVACTVTWAGAPGVLPGAAAKFGVGAVVNYFSKATPH",
    "glycan array binding signal (z-score)": -0.101
  },
  {
    "binder": "PA-IL (Pseudomonas aeruginosa), Q05097 (protein) MAWKGEVLANNEAGQVTSIIYNPGDVITIVAAGWASYGPTQKWGPQGDREHPDQGLICHDAFCGALVMKIGNSGTIPVNTGLFRWVAPNNVQGAITLIYNDVPGTYGNNSGSFSVNIGKDQS",
    "glycan array binding signal (z-score)": 3.63
  },
  {
    "binder": "CIH1 (Colletotrichum higginsianum) (protein) LPQATPTTPTPTSASAAATISATSSPTCSPGPVIDYTVVSGDTLTIISQRFSSGICNIADASGITNPNFLSLGQVLQVPTYVCTPDNTSCLAKEGSDTCVEGGPATHTIVAGDTFFLVAQSLGLDVNALLAANEGVDPLLLQIGDVINIPVC",
    "glycan array binding signal (z-score)": -0.052
  }
]
